# Organism: Homo sapiens
# assay: Selectivity ratio of Ki for human recombinant MAOA to Ki for human recombinant MAOB
hey, just use rule met if measured Ratio Ki is less than 9, otherwise rule not met

Please review the entries below; each comes with its answer.
# compound structure string, assigned class
data = [
    ("O=C1Nc2ccc(CCCCc3ccccc3)cc2C1=O", "rule not met"),
    ("O=C1Nc2cc(Oc3ccccc3)ccc2C1=O", "rule met"),
    ("O=C1Nc2ccc(Oc3ccc(Cl)cc3)cc2C1=O", "rule not met"),
    ("O=C1Nc2ccc(OCc3ccccc3)cc2C1=O", "rule not met"),
    ("Nc1ccc(Oc2ccc(Cl)cc2)cc1", "rule met"),
]

Qu. API: query returns whether the molecule falls strictly under 9 in Ratio Ki. Query: `Nc1cccc(OCc2ccccc2)c1`
Ans. rule not met

Qu. API: query returns whether the molecule falls strictly under 9 in Ratio Ki. Query: `O=C1Nc2cc(OCc3ccccc3)ccc2C1=O`
Ans. rule not met

Qu. API: query returns whether the molecule falls strictly under 9 in Ratio Ki. Query: `Nc1ccc(Oc2ccccc2)cc1`
Ans. rule met

Qu. API: query returns whether the molecule falls strictly under 9 in Ratio Ki. Query: `O=C1Nc2ccc(/C=C/c3ccccc3)cc2C1=O`
Ans. rule not met

====

# system under test: Amine oxidase [flavin-containing] A (Homo sapiens, UniProt P21397)
# assay: Inhibition of human recombinant MAOA expressed in insect cells by fluorescence assay
Reported pKi values for a set of compounds
In textbook form, pKi equals minus log to base ten of the concentration in mol/L.

Solved entries:
# compound, pKi
records = [
    ("O=C1Nc2cc(CCc3ccccc3)ccc2C1=O", 5.74),
    ("Nc1ccc(CCc2ccccc2)cc1", 4.46),
    ("O=C1Nc2ccc(-c3ccccc3)cc2C1=O", 6.83),
]

Moving on to the next compound.
Qu. Tell me the measured pKi of Nc1cccc(OCc2ccccc2)c1 [3-(BENZYLOXY)ANILINE] , please.
Ans. 3.91

====

# system under test: Amine oxidase [flavin-containing] B (Homo sapiens, UniProt P27338)
# Sequence (P27338 whole entry): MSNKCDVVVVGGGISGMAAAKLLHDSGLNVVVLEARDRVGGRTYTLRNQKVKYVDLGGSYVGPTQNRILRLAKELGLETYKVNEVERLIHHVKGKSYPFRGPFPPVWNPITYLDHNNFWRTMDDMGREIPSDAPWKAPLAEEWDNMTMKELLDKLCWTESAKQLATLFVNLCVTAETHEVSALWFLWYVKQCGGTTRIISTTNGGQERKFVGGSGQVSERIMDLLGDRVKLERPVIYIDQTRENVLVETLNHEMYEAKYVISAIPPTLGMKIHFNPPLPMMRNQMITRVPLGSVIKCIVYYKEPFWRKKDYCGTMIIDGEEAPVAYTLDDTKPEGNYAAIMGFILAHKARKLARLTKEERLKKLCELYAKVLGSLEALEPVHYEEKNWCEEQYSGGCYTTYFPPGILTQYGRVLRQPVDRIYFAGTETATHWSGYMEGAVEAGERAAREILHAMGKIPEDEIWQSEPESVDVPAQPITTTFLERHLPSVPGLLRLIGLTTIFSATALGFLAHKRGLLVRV
# assay: Inhibition of human recombinant MAOB expressed in insect cells by fluorescence assay
assay endpoint: IC50 (µM)
Please state the figure in µM; there is no need to write the unit.

Solved entries:
# compound, IC50, µM
measured = [
    ("O=C1Nc2ccc(Oc3ccc(Cl)cc3)cc2C1=O", 0.066),
    ("O=C1Nc2ccc(-c3ccccc3)cc2C1=O", 1.19),
    ("O=C1Nc2ccc(Oc3ccccc3)cc2C1=O", 1.54),
]

Qu. What value of IC50 on Amine oxidase [flavin-containing] B (Homo sapiens, UniProt P27338) does `O=C1Nc2ccc(OCc3ccccc3)cc2C1=O` have?
Ans. 0.103

Qu. What value of IC50 on Amine oxidase [flavin-containing] B (Homo sapiens, UniProt P27338) does `Nc1ccc(Oc2ccccc2)cc1` have?
Ans. 303

Qu. What value of IC50 on Amine oxidase [flavin-containing] B (Homo sapiens, UniProt P27338) does `O=C1Nc2ccc(CCc3ccccc3)cc2C1=O` have?
Ans. 1.4

Qu. What value of IC50 on Amine oxidase [flavin-containing] B (Homo sapiens, UniProt P27338) does `O=C1Nc2ccc(/C=C/c3ccccc3)cc2C1=O` have?
Ans. 0.009

====

Reported log10(Ki) values for a set of compounds
# system under test: Amine oxidase [flavin-containing] B (Homo sapiens)
# assay: Inhibition of human recombinant MAOB expressed in insect cells by fluorescence assay
# Type: cell-based
For clarity, the numbers are log10 values of Ki expressed in µM.

Solved entries:
# compound structure string, log10(Ki)
records = [
    ("O=C1Nc2ccc(CCCCc3ccccc3)cc2C1=O", -3.55),
    ("O=C1Nc2cc(CCc3ccccc3)ccc2C1=O", 0.63),
    ("O=C1Nc2ccc(CCc3ccccc3)cc2C1=O", -0.22),
    ("Cl.Nc1ccc(CCCCc2ccccc2)cc1", 0.38),
]

Qu. Tell me the measured log10(Ki) of `O=C1Nc2ccc(OCc3ccccc3)cc2C1=O` , please.
Ans. -1.36

====

# system under test: Amine oxidase [flavin-containing] B (Homo sapiens, UniProt P27338)
# assay: Inhibition of human recombinant MAOB expressed in insect cells by fluorescence assay
assay endpoint: log10(Ki) (log10 of the value in nM)
For clarity, the numbers are log10 values of Ki expressed in nM.

Solved entries:
# compound, log10(Ki)
rows = [
    ("Nc1cccc(OCc2ccccc2)c1 [3-(BENZYLOXY)ANILINE]", 4.00),
    ("O=C1Nc2ccc(-c3ccccc3)cc2C1=O", 2.71),
    ("Nc1ccc(Oc2ccc(Cl)cc2)cc1", 3.86),
    ("O=C1Nc2ccc(Oc3ccc(Cl)cc3)cc2C1=O", 1.45),
    ("O=C1Nc2ccc(/C=C/c3ccccc3)cc2C1=O", 0.60),
    ("Nc1ccc(Oc2ccccc2)cc1 [4-PHENOXYANILINE]", 5.12),
    ("Nc1cccc(/C=C/c2ccccc2)c1", 3.39),
    ("O=C1Nc2cc(Oc3ccccc3)ccc2C1=O", 3.63),
    ("O=C1Nc2cc(-c3ccccc3)ccc2C1=O", 3.56),
    ("O=C1Nc2ccc(Oc3ccccc3)cc2C1=O", 2.82),
]

Qu. Tell me the measured log10(Ki) of Nc1ccc(OCc2ccccc2)cc1 [4-BENZYLOXYANILINE] , please.
Ans. 3.74

Qu. Tell me the measured log10(Ki) of `O=C1Nc2cc(OCc3ccccc3)ccc2C1=O` , please.
Ans. 1.77

Qu. Tell me the measured log10(Ki) of Nc1ccc(/C=C/c2ccccc2)cc1 [(E)-4-STYRYLANILINE] , please.
Ans. 3.44

====

# system under test: Amine oxidase [flavin-containing] A (Homo sapiens)
# Sequence (P21397 whole entry): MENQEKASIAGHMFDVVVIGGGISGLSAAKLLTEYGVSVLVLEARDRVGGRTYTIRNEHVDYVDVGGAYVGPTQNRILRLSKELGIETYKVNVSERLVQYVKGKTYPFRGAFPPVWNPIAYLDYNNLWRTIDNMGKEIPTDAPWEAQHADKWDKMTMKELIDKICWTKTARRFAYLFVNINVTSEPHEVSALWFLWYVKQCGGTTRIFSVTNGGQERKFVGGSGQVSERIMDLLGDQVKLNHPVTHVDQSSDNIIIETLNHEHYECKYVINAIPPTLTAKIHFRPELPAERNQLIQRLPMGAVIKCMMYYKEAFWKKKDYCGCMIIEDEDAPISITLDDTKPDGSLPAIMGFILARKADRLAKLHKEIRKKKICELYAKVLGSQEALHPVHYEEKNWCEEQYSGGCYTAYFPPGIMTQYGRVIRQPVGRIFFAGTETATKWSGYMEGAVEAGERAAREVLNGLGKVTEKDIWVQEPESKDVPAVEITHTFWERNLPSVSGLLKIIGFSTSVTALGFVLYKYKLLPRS
# assay: Inhibition of human recombinant MAOA expressed in insect cells by fluorescence assay
hey, just use condition met if measured Ki is less than 3 µM, otherwise condition not met

Please review the entries below; each comes with its answer.
# molecule, assigned class
measured = [
    ("O=C1Nc2cc(/C=C/c3ccccc3)ccc2C1=O [(E)-6-STYRYLISATIN]", "condition met"),
    ("O=C1Nc2cc(-c3ccccc3)ccc2C1=O", "condition met"),
    ("O=C1Nc2ccc(Oc3ccc(Cl)cc3)cc2C1=O", "condition not met"),
    ("Nc1ccc(Oc2ccccc2)cc1", "condition not met"),
]

Qu. API: query returns whether the molecule falls strictly under 3 µM in Ki. Query: `Nc1cccc(/C=C/c2ccccc2)c1`
Ans. condition not met

Qu. API: query returns whether the molecule falls strictly under 3 µM in Ki. Query: `O=C1Nc2cc(Oc3ccccc3)ccc2C1=O`
Ans. condition not met

Qu. API: query returns whether the molecule falls strictly under 3 µM in Ki. Query: `O=C1Nc2ccc(OCc3ccccc3)cc2C1=O`
Ans. condition met

====

# system under test: Amine oxidase [flavin-containing] A (Homo sapiens, UniProt P21397)
# assay: Inhibition of human recombinant MAOA expressed in insect cells by fluorescence assay
assay endpoint: log10(IC50) (log10 of the value in µM)
For clarity, the numbers are log10 values of IC50 expressed in µM.

# molecule, log10(IC50)
rows = [
    ("O=C1Nc2ccc(Oc3ccccc3)cc2C1=O", 0.97),
]

Qu. Tell me the measured log10(IC50) of `O=C1Nc2ccc(-c3ccccc3)cc2C1=O` , please.
Ans. -0.25

Qu. Tell me the measured log10(IC50) of `O=C1Nc2cc(Oc3ccccc3)ccc2C1=O` , please.
Ans. 1.79

Qu. Tell me the measured log10(IC50) of `Nc1cccc(OCc2ccccc2)c1` , please.
Ans. 2.67

Qu. Tell me the measured log10(IC50) of `Nc1ccc(CCc2ccccc2)cc1` , please.
Ans. 2.12

Qu. Tell me the measured log10(IC50) of `O=C1Nc2cc(CCc3ccccc3)ccc2C1=O` , please.
Ans. 0.84

Qu. Tell me the measured log10(IC50) of `O=C1Nc2ccc(OCc3ccccc3)cc2C1=O` , please.
Ans. 0.66

Qu. Tell me the measured log10(IC50) of `O=C1Nc2ccc(/C=C/c3ccccc3)cc2C1=O` , please.
Ans. -0.63

Qu. Tell me the measured log10(IC50) of `Nc1cccc(-c2ccccc2)c1` , please.
Ans. 1.84

Qu. Tell me the measured log10(IC50) of `Nc1cccc(CCc2ccccc2)c1` , please.
Ans. 2.55

Qu. Tell me the measured log10(IC50) of `O=C1Nc2ccc(CCc3ccccc3)cc2C1=O` , please.
Ans. 0.69

Qu. Tell me the measured log10(IC50) of Nc1ccc(/C=C/c2ccccc2)cc1 [(E)-4-STYRYLANILINE] , please.
Ans. 1.40

Qu. Tell me the measured log10(IC50) of `Nc1ccc(Oc2ccc(Cl)cc2)cc1` , please.
Ans. 1.47

Qu. Tell me the measured log10(IC50) of `O=C1Nc2cc(OCc3ccccc3)ccc2C1=O` , please.
Ans. 1.86

Qu. Tell me the measured log10(IC50) of `O=C1Nc2ccc(CCCCc3ccccc3)cc2C1=O` , please.
Ans. 0.34

Qu. Tell me the measured log10(IC50) of `O=C1Nc2cc(-c3ccccc3)ccc2C1=O` , please.
Ans. 0.67

Qu. Tell me the measured log10(IC50) of `Nc1ccc(OCc2ccccc2)cc1` , please.
Ans. 2.28

Qu. Tell me the measured log10(IC50) of `Nc1cccc(/C=C/c2ccccc2)c1` , please.
Ans. 1.48

Qu. Tell me the measured log10(IC50) of O=C1Nc2cc(/C=C/c3ccccc3)ccc2C1=O [(E)-6-STYRYLISATIN] , please.
Ans. 0.43

Qu. Tell me the measured log10(IC50) of `O=C1Nc2ccc(Oc3ccc(Cl)cc3)cc2C1=O` , please.
Ans. 1.09

Qu. Tell me the measured log10(IC50) of `Nc1ccc(Oc2ccccc2)cc1` , please.
Ans. 1.96

Sourced from ChEMBL document CHEMBL1641591
